Origin of measurements: paper doi:10.1101/2025.02.17.638454

- TGT: T1, Recombinant KRAS protein (#ab156968, Abcam) (UniProt P01116 1-189)
- T1 construct: KRAS, recombinant protein bought from Abcam; source: bought: Abcam (#ab156968), dialyzed into ITC buffer
- ASSAY EXPLANATION: ITC; twenty 6 ul injections (150 s intervals) of 500 uM HNB into the cell with 93 uM KRAS; 20 mM Tris pH 8.0, 100 mM NaCl, 5 mM beta-mercaptoethanol; 25 C; Affinity ITC (TA Instruments)
- CONDITION SET: both partners purified
MEASURED ENDPOINT: Kd (µM)

binder="MKTQLGAVKGFLHV [Honeybadger (HNB) peptide used for ITC]" measured_endpoint=Kd unit_abbrev=µM observed_value=364
